Test system: Laminin 421/521
Assay: Phage display library screening (Example 2), NEB laminin-binding peptides
Set-up: species or system human
Conditions: Laminin 421/521, not 211 and 411; combined unique sequence count, Python/R script analysis
Exercise: for every item that follows, state its recorded Count.
Numbers only.

Observe how each entry below is paired with its result.
WAYTDYM (Laminin 421/521-binding peptide): 35
CFQPKMNSC (Laminin 421/521-binding peptide): 42
HSFLGAR (Laminin 421/521-binding peptide): 44
CTAWTRQEC (Laminin 421/521-binding peptide): 31
QGWFRHS (Laminin 421/521-binding peptide): 121
DDLLTAPRLGVW (Laminin 421/521-binding peptide): 54
CHRTYNSTC (Laminin 421/521-binding peptide): 46
GWTSDLSRNVRG (Laminin 421/521-binding peptide): 28
CWSGNSRSC (Laminin 421/521-binding peptide): 42
TKGIAPK (Laminin 421/521-binding peptide): 28

The following substances each have a reported value; give each one's Count.
1. GDAQILM (Laminin 421/521-binding peptide)
2. FPLKIRT (Laminin 421/521-binding peptide)
3. WRSPLTT (Laminin 421/521-binding peptide)
4. CQTSGHHQC (Laminin 421/521-binding peptide)
5. CIGGPHRNC (Laminin 421/521-binding peptide)

RESULT:
1: 38; 2: 42; 3: 30; 4: 31; 5: 29

Consider the following items and state reported Count for each.
1. WDLPTLRKTKQA (Laminin 421/521-binding peptide)
2. NNNAAMQNHGVR (Laminin 421/521-binding peptide)
3. SGWEGKTHQGVR (Laminin 421/521-binding peptide)
4. RAQAHQV (Laminin 421/521-binding peptide)
5. LGPSTQGAGQTR (Laminin 421/521-binding peptide)
6. GEPLTRFPNSDS (Laminin 421/521-binding peptide)
7. ATSKYPNSWAQT (Laminin 421/521-binding peptide)

RESULT:
114
51
69
51
38
52
80

Give Count for all substances that follow.
1. NWTHLGVARLQP (Laminin 421/521-binding peptide)
2. GHPWTEIDFMSS (Laminin 421/521-binding peptide)
3. DVIHSSRGAYFE (Laminin 421/521-binding peptide)
4. IDQSGLQKSGMK (Laminin 421/521-binding peptide)
5. WGANTTGRTHGG (Laminin 421/521-binding peptide)
6. CLHNGQRSC (Laminin 421/521-binding peptide)

RESULT:
36
50
36
29
40
37

Dear reader, for each entry below, please note its Count.
1. LQSNAADHHQGM (Laminin 421/521-binding peptide)
2. CHQRQQTYC (Laminin 421/521-binding peptide)
3. RNLHYPLNHPFM (Laminin 421/521-binding peptide)
4. CGETTAGKC (Laminin 421/521-binding peptide)

RESULT:
1: 75; 2: 55; 3: 30; 4: 33
